Assay: Cytotoxicity against human HT-29 cells assessed as inhibition of spheroid growth
Details: HT-29 cell spheroids
Measured IC50 by item

compound	IC50, µM
O=c1c(OS(=O)(=O)[O-])c(-c2ccc(OS(=O)(=O)[O-])c(OS(=O)(=O)[O-])c2)oc2cc(OS(=O)(=O)[O-])cc(OCC3CCC(COc4cc(OS(=O)(=O)[O-])cc5oc(-c6ccc(OS(=O)(=O)[O-])c(OS(=O)(=O)[O-])c6)c(OS(=O)(=O)[O-])c(=O)c45)CC3)c12.[Na+].[Na+].[Na+].[Na+].[Na+].[Na+].[Na+].[Na+] (configuration not stated)	4
CC(C)CCC[C@@H](C)[C@H]1CC[C@H]2[C@@H]3CC=C4C[C@@H](OCCCCCOc5cc(-c6oc7cc(OS(=O)(=O)[O-])cc(OCCCOc8cc(OS(=O)(=O)[O-])cc9oc(-c%10ccc(OS(=O)(=O)[O-])c(OS(=O)(=O)[O-])c%10)c(OS(=O)(=O)[O-])c(=O)c89)c7c(=O)c6OS(=O)(=O)[O-])ccc5OS(=O)(=O)[O-])CC[C@]4(C)[C@H]3CC[C@]12C.[Na+].[Na+].[Na+].[Na+].[Na+].[Na+].[Na+]	11.5
O=c1c(OS(=O)(=O)[O-])c(-c2ccc(OS(=O)(=O)[O-])cc2OS(=O)(=O)[O-])oc2cc(OS(=O)(=O)[O-])cc(OCC3CCC(COc4cc(OS(=O)(=O)[O-])cc5oc(-c6ccc(OS(=O)(=O)[O-])cc6OS(=O)(=O)[O-])c(OS(=O)(=O)[O-])c(=O)c45)CC3)c12.[Na+].[Na+].[Na+].[Na+].[Na+].[Na+].[Na+].[Na+] (configuration not stated)	17.9
CC(C)CCC[C@@H](C)[C@H]1CC[C@H]2[C@@H]3CC=C4C[C@@H](OCCOc5cc(-c6oc7cc(OS(=O)(=O)[O-])cc(OCCCOc8cc(OS(=O)(=O)[O-])cc9oc(-c%10ccc(OS(=O)(=O)[O-])c(OS(=O)(=O)[O-])c%10)c(OS(=O)(=O)[O-])c(=O)c89)c7c(=O)c6OS(=O)(=O)[O-])ccc5OS(=O)(=O)[O-])CC[C@]4(C)[C@H]3CC[C@]12C.[Na+].[Na+].[Na+].[Na+].[Na+].[Na+].[Na+]	5.5
CC(C)CCC[C@@H](C)[C@H]1CC[C@H]2[C@@H]3CC=C4C[C@@H](OCCCCCCCCOc5cc(-c6oc7cc(OS(=O)(=O)[O-])cc(OCCCOc8cc(OS(=O)(=O)[O-])cc9oc(-c%10ccc(OS(=O)(=O)[O-])c(OS(=O)(=O)[O-])c%10)c(OS(=O)(=O)[O-])c(=O)c89)c7c(=O)c6OS(=O)(=O)[O-])ccc5OS(=O)(=O)[O-])CC[C@]4(C)[C@H]3CC[C@]12C.[Na+].[Na+].[Na+].[Na+].[Na+].[Na+].[Na+]	0.8
O=c1c(OS(=O)(=O)[O-])c(-c2ccc(OS(=O)(=O)[O-])c(OS(=O)(=O)[O-])c2)oc2cc(OS(=O)(=O)[O-])cc(OCCCOc3cc(OS(=O)(=O)[O-])cc4oc(-c5ccc(OS(=O)(=O)[O-])c(OS(=O)(=O)[O-])c5)c(OS(=O)(=O)[O-])c(=O)c34)c12.[Na+].[Na+].[Na+].[Na+].[Na+].[Na+].[Na+].[Na+]	29.6
O=c1cc(-c2ccc(OS(=O)(=O)[O-])cc2)oc2cc(OS(=O)(=O)[O-])cc(OCC3CCC(COc4cc(OS(=O)(=O)[O-])cc5oc(-c6ccc(OS(=O)(=O)[O-])cc6)cc(=O)c45)CC3)c12.[Na+].[Na+].[Na+].[Na+] (configuration not stated)	46
